- System: Trypanosoma cruzi
- Measurement description: Trypanosoma cruzi phosphomannomutase and mannose-1-phosphate guanylyltransferase assay
- Type: functional
- Design: scale not given: direction of the effect not stated beside the values
- Reported conditions: 10 µM
Quick reference: Percent Effect of the listed items.
Reply numerically in %, unit not repeated.

The examples below pair each entry with its known result.
1. Cc1cc(CNCc2c(C)nn(C)c2N2CCOCC2)no1	7.14
2. CCCOc1ccc(CNC2CCCc3c2cnn3CC)cc1OC (stereo unspecified)	6.33
3. Cc1cc(F)cc(S(=O)(=O)NCCCN2CCC(O)CC2)c1	-0.688
4. c1ccc(CN2CC[C@@H]3O[C@@H](COCC4CCOCC4)CC[C@@H]32)nc1	-0.394
5. NC(=O)C1CCN(c2nc3nccc(-c4ccccc4)c3c(=O)[nH]2)CC1	6.75
6. CC(C)Nc1nc(N2CCOCC2)nc2c1CN(Cc1ccoc1)CC2	-1.97
7. CC(C)c1n[nH]c(C2CN(C(=O)C3=COCC3)CCO2)n1 (stereo unspecified)	0.0934
8. Cc1ccc(CN2CCc3ncnc(-c4cccnc4)c3CC2)o1	-0.772
9. Cc1oncc1C(=O)N1CCC2(C1)CN(c1cccnc1)C(=O)CN2C (stereo unspecified)	4.05
10. CC1(NC(=O)Cc2csc(C(C)(C)C)n2)CCS(=O)(=O)C1 (stereo unspecified)	9.01

Turning now to a further compound:
// sample COc1ccccc1C(=O)N1CCCC1Cn1cc(C)cn1 (stereo unspecified) , its Percent Effect was -4.25

---

Quick reference: Percent Effect of the listed items.
- Organism: Homo sapiens
- Measurement description: To identify inhibition of the IFN signalling (Jak-Stat) pathway via expression of an eGFP reporter gene under the control of an IFN-stimulated response element (ISRE) containing MxA promoter.
- Assay type: functional
- Design: scale not given: direction of the effect not stated beside the values
- Reported conditions: 30 µM

1) O=C([C@@H]1CCO[C@@H]2CCN(Cc3cccnc3)C[C@H]21)N1CCCCO1	17.3%

// sample "Cc1cccc(NC(=O)N2CCCn3cnc(CN4CCCC4)c3C2)c1" , its Percent Effect was -6.55%

// sample "O=C(NCc1ccco1)[C@H]1C[C@H]2OCC[C@H]2N(S(=O)(=O)C2CC2)C1" , its Percent Effect was -14%

// sample c1cnnc(N2CCCC(NCc3ccc(-n4cccn4)cc3)C2)c1 (centres undefined) , its Percent Effect was 20.3%

// sample CCOCCN1CCN(Cc2nnc(C3CC3)o2)CC1CC (centres undefined) , its Percent Effect was 2.56%

---

- Target system: Chromo domain-containing protein 1 (Saccharomyces cerevisiae (strain ATCC 204508 / S288c) (Baker's yeast)) (UniProt P32657)
- Sequence (P32657 whole entry, the tested form may be a part): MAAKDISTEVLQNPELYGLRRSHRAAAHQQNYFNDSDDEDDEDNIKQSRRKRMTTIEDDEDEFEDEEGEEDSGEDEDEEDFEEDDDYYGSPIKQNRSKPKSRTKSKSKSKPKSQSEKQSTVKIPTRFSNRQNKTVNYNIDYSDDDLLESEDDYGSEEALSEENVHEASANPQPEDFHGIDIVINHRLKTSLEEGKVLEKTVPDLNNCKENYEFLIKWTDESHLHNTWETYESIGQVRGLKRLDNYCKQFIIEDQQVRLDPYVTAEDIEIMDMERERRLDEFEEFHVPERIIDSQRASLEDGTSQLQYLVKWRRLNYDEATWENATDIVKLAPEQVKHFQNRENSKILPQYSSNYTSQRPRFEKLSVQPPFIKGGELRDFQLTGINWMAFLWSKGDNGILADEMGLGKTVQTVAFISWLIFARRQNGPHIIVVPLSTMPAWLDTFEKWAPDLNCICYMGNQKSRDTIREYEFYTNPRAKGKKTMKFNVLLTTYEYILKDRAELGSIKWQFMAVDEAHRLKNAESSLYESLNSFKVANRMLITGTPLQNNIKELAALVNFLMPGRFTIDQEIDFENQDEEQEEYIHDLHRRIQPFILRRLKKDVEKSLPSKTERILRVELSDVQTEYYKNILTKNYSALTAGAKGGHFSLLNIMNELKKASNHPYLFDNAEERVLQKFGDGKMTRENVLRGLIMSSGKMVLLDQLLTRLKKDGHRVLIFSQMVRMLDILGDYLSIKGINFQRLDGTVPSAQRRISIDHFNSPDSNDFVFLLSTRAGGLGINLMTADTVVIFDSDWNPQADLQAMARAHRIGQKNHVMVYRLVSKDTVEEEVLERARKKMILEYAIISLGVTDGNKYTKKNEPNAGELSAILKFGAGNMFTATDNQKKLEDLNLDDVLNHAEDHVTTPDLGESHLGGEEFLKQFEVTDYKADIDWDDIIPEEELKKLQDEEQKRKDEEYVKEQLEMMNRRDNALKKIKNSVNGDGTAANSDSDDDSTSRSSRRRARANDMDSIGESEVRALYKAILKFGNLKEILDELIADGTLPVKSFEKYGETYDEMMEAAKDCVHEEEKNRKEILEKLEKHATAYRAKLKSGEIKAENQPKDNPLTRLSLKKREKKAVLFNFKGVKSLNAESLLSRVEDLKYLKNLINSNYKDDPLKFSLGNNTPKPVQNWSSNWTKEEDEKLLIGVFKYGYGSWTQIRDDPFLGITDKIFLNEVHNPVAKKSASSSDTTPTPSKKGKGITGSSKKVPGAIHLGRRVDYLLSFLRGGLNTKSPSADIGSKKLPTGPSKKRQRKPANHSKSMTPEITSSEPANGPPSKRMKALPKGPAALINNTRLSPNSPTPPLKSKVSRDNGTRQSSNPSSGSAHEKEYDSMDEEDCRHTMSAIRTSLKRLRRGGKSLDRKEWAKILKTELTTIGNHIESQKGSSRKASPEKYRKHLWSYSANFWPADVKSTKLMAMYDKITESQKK
- Measurement description: ScCHD-1 Enzyme Inhibition Assay; also: in the data most compounds retested in dose-response had high values
- Type: functional
- Set-up: scale not given: direction of the effect not stated beside the values
- Reported conditions: 30 µM
Metric name: Percent Effect (%)
Reply numerically in %, unit not repeated.

The examples below pair each entry with its known result.
1) O=C1CCCc2cc(-c3csc(CCN4CCOC4=O)n3)ccc2N1	-9.88
2) COc1cc(OC)c(C2Nc3cc(Cl)ccc3C3=NCCN32)cc1OC (centres undefined)	-5.67
3) CNC(=O)NC(=O)Cn1cc(-c2ccccc2)cn1	-4.57
4) CN(C)CC1CN(c2cnc3ccccc3n2)CCO1 (centres undefined)	-5.98
5) CS(=O)(=O)NCc1n[nH]c2c1CCN(C(=O)c1ccsc1)C2	-5

// sample CC(C)Oc1cccc(C(=O)C2CCCN(C(=O)c3ccccn3)C2)c1 (centres undefined) , its Percent Effect was -1.58

// sample OCC1CCCN1c1cc(NCc2ccc(Cl)s2)ncn1 (centres undefined) , its Percent Effect was -15.5

// sample CS(=O)(=O)N1CCOCC2(CN(Cc3ccsc3)CCO2)C1 (centres undefined) , its Percent Effect was -0.73

---

Quick reference: Percent Effect of the listed items.
- Target system: Tyrosyl-tRNA synthetase, putative (Trypanosoma cruzi (strain CL Brener)) (UniProt Q4DSP6)
- Sequence (Q4DSP6 as listed by the source): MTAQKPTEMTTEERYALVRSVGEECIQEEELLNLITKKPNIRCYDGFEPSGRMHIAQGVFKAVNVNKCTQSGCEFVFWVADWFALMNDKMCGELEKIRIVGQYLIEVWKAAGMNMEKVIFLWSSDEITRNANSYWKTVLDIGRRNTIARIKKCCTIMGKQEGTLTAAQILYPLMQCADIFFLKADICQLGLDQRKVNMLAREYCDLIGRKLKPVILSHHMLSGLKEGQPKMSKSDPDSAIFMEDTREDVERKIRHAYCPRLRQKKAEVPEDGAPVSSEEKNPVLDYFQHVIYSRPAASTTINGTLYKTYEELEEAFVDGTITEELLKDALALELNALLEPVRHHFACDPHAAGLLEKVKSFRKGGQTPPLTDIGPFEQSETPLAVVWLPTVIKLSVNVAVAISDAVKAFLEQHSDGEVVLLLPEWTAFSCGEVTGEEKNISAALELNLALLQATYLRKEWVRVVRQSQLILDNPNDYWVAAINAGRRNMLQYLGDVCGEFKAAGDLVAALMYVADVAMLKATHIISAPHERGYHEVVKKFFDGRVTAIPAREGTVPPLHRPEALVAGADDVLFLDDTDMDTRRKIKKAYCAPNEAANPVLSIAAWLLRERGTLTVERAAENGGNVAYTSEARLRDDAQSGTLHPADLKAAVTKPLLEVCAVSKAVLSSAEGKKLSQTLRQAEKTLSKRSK
- Measurement description: Trypanosoma cruzi tyrosyl tRNA synthetase (TcYRS) SOP
- Type: functional
- Design: scale not given: direction of the effect not stated beside the values
- Reported conditions: 30 µM
Reply numerically in %, unit not repeated.

1. CCOCCN1CCN(Cc2nnc(C3CC3)o2)CC1CC (stereo unspecified)	7.5
2. CCN1CC2(CCC1=O)CCN(C(=O)c1ccc(Cl)cc1O)CC2	15.4
3. O=C(NCCn1ccnc1)c1ccn(-c2cccc(F)c2)n1	3.7

// sample "CSCc1cccc(S(=O)(=O)NCCCN2CCOCC2)c1" , its Percent Effect was 11.1

// sample "Cc1noc([C@@H]2CC[C@@H]3[C@@H](CCN3S(=O)(=O)C3CC3)O2)n1" , its Percent Effect was 11

// sample "CCn1c(CN2CCC(O)(C(=O)OC)CC2)nc2c(F)cccc21" , its Percent Effect was 9.76

---

- Target system: Arginase-2, mitochondrial (Homo sapiens)
- Measurement description: in vitro enzyme assay to detect the production of urea directly proportional to the activity of Arginase II; also: in the data most compounds retested in dose-response had high values
- Type: functional
- Set-up: scale not given: direction of the effect not stated beside the values
- Reported conditions: 33.3 µM
Metric name: Percent Effect (%)
Reply numerically in %, unit not repeated.

The examples below pair each entry with its known result.
1. O=C(NCCOCC(F)(F)F)c1ccc(-c2ccco2)[nH]c1=O	-0.802
2. Cc1cnn(CCC(=O)N2CCCN(c3cccnn3)CC2)c1	-0.645
3. CN(C)CCN1CCO[C@H]2CN(Cc3cnn(C)c3)C[C@H]21	2.73
4. CCCn1ccc(C(=O)N2CCC(C)CC2)n1	-44.1
5. NC(=O)c1ccc(OCC(=O)N2CCCC(n3cccn3)C2)cc1 (stereo not drawn)	1.9
6. O=C([C@H]1CN(CCc2ccccc2)C[C@H]2OCC[C@@H]12)N1CCCO1	-46.1

// sample "CC(C)c1cc(C(=O)N2CCN(Cc3ccsc3)CC2)n[nH]1" , its Percent Effect was 18.1

// sample CCCc1n[nH]c(C2CN(C(=O)c3ccco3)CCO2)n1 (stereo not drawn) , its Percent Effect was 2.52

// sample "CC(C)c1nc2c(n1C)CCN(Cc1nc(-c3cccs3)no1)C2" , its Percent Effect was -1.66

// sample COc1ccc(-n2ccc(C(=O)N3CCC(C(N)=O)C3)n2)cc1 (stereo not drawn) , its Percent Effect was 1.29

// sample N#Cc1ccccc1CN1CCCCC1Cn1cncn1 (stereo not drawn) , its Percent Effect was 0

---

- Target system: Sialic acid-binding Ig-like lectin 9 (Homo sapiens)
- Measurement description: Hs-Siglec9 ALPHAscreen SOP 20170721
- Design: scale not given: direction of the effect not stated beside the values
- Reported conditions: 10 µM
Metric name: Percent Effect (%)
Reply numerically in %, unit not repeated.

The examples below pair each entry with its known result.
1. CN1CCCC(CNC(=O)N2CCN(Cc3ccon3)CC2)C1 (stereo not drawn)	1.23
2. CCc1ccc(CN2CCCC(CO)(CCOC)C2)cc1 (stereo not drawn)	-7.57
3. Cc1ccc(N2CCCC(NCc3ccncc3)C2)nn1 (stereo not drawn)	-7.21

// sample "CN1CCC(Oc2ccc(NC(=O)c3ccccc3Br)cc2)CC1" , its Percent Effect was 7.1

// sample "Cc1cccc(-c2nc(C)nn2CC(=O)N(C)C2CC2)c1" , its Percent Effect was 7.36

// sample "COc1cccn(CC(=O)N(C)Cc2ccoc2)c1=O" , its Percent Effect was 30.6

// sample Cc1noc(CCCC(=O)NC(C)c2cccnc2)n1 (stereo not drawn) , its Percent Effect was 0.605

// sample Cc1cncc(C2CCCN(C(=O)c3scnc3C)C2)n1 (stereo not drawn) , its Percent Effect was 2.37

// sample CC(CCN1CCn2nc(CNC(=O)N(C)C)cc2C1)c1ccccc1 (stereo not drawn) , its Percent Effect was 16.6

// sample CCCc1noc(CCC(=O)N2CCCC2c2noc(C3CC3)n2)n1 (stereo not drawn) , its Percent Effect was 21.9

// sample COCC1c2nnn(CC3CC3)c2CCN1C(=O)c1cccc(F)c1 (stereo not drawn) , its Percent Effect was 0.968

// sample "CO[C@H]1CN(C(=O)c2ccc3oc(C)cc3c2)CC[C@@]12CCCO2" , its Percent Effect was 2.79

// sample "Cc1nccc(C(=O)N2CCCN(Cc3cnn(C(C)C)c3)CC2)n1" , its Percent Effect was 14.6

// sample COCC1c2c(cnn2C)CCN1Cc1ccc(F)cc1 (stereo not drawn) , its Percent Effect was -3.56

// sample CN(Cc1nnc(C2CC2)n1C)C1CCN(Cc2ccccc2F)C1 (stereo not drawn) , its Percent Effect was 2.42

// sample "CC(C)(C)C(=O)NCCC(=O)NS(=O)(=O)c1ccc2c(c1)OCCO2" , its Percent Effect was 8.35

// sample "Cc1nccc(-c2cccc(NCC(=O)N3CCNC3=O)c2)n1" , its Percent Effect was 0.813

---

Quick reference: Percent Effect of the listed items.
- Target system: Protein translocase subunit SecA (Escherichia coli (strain K12)) (UniProt P10408)
- Sequence (P10408 whole entry): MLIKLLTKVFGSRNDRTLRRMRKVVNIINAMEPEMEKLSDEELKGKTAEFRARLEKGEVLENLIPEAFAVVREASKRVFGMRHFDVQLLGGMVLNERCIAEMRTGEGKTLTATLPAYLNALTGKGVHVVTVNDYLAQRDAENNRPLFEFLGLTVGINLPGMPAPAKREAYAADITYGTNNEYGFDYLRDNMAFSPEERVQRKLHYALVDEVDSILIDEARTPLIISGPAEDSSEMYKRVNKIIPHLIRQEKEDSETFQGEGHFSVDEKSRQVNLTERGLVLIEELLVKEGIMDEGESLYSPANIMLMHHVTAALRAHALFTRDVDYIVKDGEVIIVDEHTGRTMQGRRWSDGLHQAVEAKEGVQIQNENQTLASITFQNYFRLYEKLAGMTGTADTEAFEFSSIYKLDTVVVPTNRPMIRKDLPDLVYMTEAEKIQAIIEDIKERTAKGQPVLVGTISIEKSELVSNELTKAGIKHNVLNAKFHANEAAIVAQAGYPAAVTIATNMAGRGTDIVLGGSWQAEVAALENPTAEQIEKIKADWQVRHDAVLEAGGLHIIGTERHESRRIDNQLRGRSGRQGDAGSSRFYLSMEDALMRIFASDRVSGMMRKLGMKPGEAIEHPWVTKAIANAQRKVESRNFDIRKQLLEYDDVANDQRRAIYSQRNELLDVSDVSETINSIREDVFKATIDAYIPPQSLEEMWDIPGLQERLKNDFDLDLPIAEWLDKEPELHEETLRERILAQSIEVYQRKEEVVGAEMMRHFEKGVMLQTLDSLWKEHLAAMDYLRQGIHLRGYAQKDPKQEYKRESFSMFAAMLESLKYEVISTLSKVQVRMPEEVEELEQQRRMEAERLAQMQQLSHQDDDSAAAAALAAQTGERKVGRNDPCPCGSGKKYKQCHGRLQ
- Measurement description: Assay to Identify E. coli SecA ATPase Inhibitors
- Format: functional
- Parameters: scale not given: direction of the effect not stated beside the values
- Reported conditions: 30 µM
Potency and affinity values are given separately.
Reply numerically in %, unit not repeated.

The examples below pair each entry with its known result.
1. O=C(Cn1cnc(-c2ccccc2)cc1=O)Nc1ccncc1	-2.42
2. c1ccc(-c2noc(CNC3CCc4ncnn4C3)n2)nc1 (stereo not drawn)	-2.18
3. CSc1cc2c(cc1NC(=O)NCC(C)(C)C(N)=O)OCCO2	-3.46
4. CC(NC(=O)NCc1cc[nH]n1)c1ccc2c(c1)CCC(=O)N2 (stereo not drawn)	-3.48
5. c1ncn(CC2CN(CC3CCCC3)CCO2)n1 (stereo not drawn)	-3.42
6. Cc1ccc(CC(=O)N2CC[C@@H]3CN(CCN(C)C)CCO[C@@H]3C2)cc1	-0.0347
7. O=C(NCCNc1ncccn1)C1CCN(c2ncccn2)CC1	-4.14
8. Cc1ccoc1C(=O)NC1CCN(Cc2csc3c(F)cccc23)CC1	-4.82

// sample "COc1ccc(C(=O)N2CCC(Nc3cccnn3)CC2)c(OC)c1" , its Percent Effect was 1.87

// sample "CC(C)c1nc2c(n1C)CCN(Cc1nc(-c3cccs3)no1)C2" , its Percent Effect was -5.48

// sample "O=C(NC[C@H]1OC[C@@H]2CCN(C(=O)c3ccco3)C[C@@H]21)C1CC1" , its Percent Effect was -4.23

// sample COc1cccc(CNC(=O)CN2CCCCC2Cn2cccn2)c1 (stereo not drawn) , its Percent Effect was -3.05

// sample Cc1cccnc1NC(=O)C1CCCN1Cc1ccccc1 (stereo not drawn) , its Percent Effect was -3.6

All figures here come from ChEMBL document CHEMBL3988442.
